Target: T1, mouse common cytokine receptor γ-chain (IL-2Rγ) (mouse, UniProt P34902 23-263, limits assumed)
T1 construct: Recombinant mouse IL-2Rγ protein; also called mo IL-2R; mouse IL-2R gamma
T1 sequence (looked up): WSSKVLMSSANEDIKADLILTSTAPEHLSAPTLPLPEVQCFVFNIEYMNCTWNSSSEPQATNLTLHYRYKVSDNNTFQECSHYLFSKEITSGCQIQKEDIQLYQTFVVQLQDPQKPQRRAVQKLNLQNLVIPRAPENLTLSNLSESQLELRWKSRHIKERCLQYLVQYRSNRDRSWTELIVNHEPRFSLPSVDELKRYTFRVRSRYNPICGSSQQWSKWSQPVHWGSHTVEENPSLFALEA
Assay: P.E. off-rate SPR
Provide the recorded koff for the entries that follow.
Answers are plain numbers, in s⁻¹.

[
  {
    "binder": "FJ1427_P035MP07H10 (VHH, tested as periplasmic extract; also called Clone nr; 656) VHH: EVQLVESGGGLVQAGGSLRLSCAASGRALSRLAMGWFRQAPGKEREFVVASSWGDDTFYADSVKGRFTFSRDNAKNTVYLQMNSLQPGDTAVYYCAAAPTSFATTAYSSSNSYAYWGQGTQVTVSS",
    "result-unit": "s⁻¹",
    "numeric-value": 0.0137
  },
  {
    "binder": "FJ1427_P035MP07B08 (VHH, tested as periplasmic extract; also called Clone nr; 634) VHH: EVQLVESGGGSVQPGGSLRLSCAASGRTLSRYAMGWFRQAPGKEREFVTANSWGGDTYYADSVQGRFTFSRDNAKNTVYLQMNSLQPEDTAVYYCAAAPTSFATTAYSSSNSYAYWGQGTQVTVSS",
    "result-unit": "s⁻¹",
    "numeric-value": 0.144
  }
]

Attention now turns to another entry.
Query string: Give the reported koff for this binder. FJ1427_P035MP07C07 (VHH, tested as periplasmic extract; also called Clone nr; 627) VHH: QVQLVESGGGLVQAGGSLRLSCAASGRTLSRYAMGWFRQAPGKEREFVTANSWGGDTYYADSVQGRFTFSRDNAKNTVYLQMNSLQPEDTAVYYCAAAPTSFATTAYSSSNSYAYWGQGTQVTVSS
Result string: 0.105
